- Assay summary: HEp-2 cell cytotoxicity, dose response, cytotoxicity control for RSV inhibitor project, HTS (AID 2410)
- Assay type: functional
- Study conditions: human respiratory syncytial virus
Active and inactive are the calls of the source. The rule behind the calls is not given here.
Property measured: CC50

Please review the following examples before continuing.
CCOc1ccccc1-c1cc(C(=O)N/N=C/c2ccc(O)c(OC)c2)c2ccccc2n1
26.7 µM (active)
CCCCNCC(O)(c1ccc(Cl)cc1)c1ccc(Cl)cc1
7.11 µM (active)
CCOC(=O)c1ccc2[nH]c3c(c2c1)CCCC3NC=O (centres undefined)
36 µM (active)

The reported value for Cc1ccc(NC(=O)c2ccc(NCCCN3CCOCC3)c([N+](=O)[O-])c2)cc1Cl in terms of CC50 is 12.8 µM (active)
